Every entry's value here was drawn from paper PMC10740956.

Measurement record for AChE (electric eel) (Electrophorus electricus, UniProt O42275); quantity recorded: IC50.

Molecule: C#CCCCOc1ccc2ccc(=O)oc2c1 [Compound 8, 7-(Pent-4-yn-1-yloxy)-2H-chromen-2-one]
Result value: > 100 µM

Result for CC#CCOc1ccc2ccc(=O)oc2c1 [Compound 6, 7-(But-2-yn-1-yloxy)-2H-chromen-2-one] , tested on AChE (electric eel) (Electrophorus electricus, UniProt O42275), IC50: > 100 µM

AChE (electric eel) (Electrophorus electricus, UniProt O42275) IC50 of C#CCCCOc1cc(=O)oc2ccccc12 [Compound 1, 4-(Pent-4-yn-1-yloxy)-2H-chromen-2-one] is > 100 µM

---

Molecular target: hCA XII (Homo sapiens)
Sequence (O43570 25-354): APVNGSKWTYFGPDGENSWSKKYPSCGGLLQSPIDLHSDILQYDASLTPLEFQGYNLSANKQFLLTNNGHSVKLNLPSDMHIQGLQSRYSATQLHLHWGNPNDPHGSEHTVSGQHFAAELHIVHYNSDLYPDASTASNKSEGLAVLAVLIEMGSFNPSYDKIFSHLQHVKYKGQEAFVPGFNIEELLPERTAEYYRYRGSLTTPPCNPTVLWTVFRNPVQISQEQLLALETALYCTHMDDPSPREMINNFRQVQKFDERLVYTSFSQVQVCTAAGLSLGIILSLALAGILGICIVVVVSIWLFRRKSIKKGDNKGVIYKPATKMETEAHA
Assay: stopped flow CO2 hydrase assay, hCA XII
Format: biochemical
Readout label: Ki (nM)
Number in nM, nothing else.

So for "CCC#CCOc1ccc2ccc(=O)oc2c1" , the logged Ki turned out to be 6.8

---

Attribute: pIC50
Target: BuChE (equine serum) (Equus caballus, UniProt P81908)
Sequence (P81908 whole entry): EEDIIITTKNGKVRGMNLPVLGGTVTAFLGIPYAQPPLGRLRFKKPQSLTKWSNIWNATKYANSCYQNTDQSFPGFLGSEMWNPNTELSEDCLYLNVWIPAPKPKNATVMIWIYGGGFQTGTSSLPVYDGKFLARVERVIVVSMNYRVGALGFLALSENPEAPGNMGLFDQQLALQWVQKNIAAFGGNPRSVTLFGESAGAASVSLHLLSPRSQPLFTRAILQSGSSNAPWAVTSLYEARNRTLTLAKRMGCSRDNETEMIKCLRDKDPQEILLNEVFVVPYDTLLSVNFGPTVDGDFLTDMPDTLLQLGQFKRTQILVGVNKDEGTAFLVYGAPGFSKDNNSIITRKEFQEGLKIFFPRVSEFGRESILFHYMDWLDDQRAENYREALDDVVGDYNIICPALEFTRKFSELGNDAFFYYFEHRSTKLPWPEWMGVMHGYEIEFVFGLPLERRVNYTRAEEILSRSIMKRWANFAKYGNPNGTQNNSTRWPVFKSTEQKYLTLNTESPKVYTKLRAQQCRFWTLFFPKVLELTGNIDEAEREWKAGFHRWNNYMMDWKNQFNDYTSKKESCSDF
Test: biochemical
Conditions: mean ± SD of triplicate determinations
Units for pIC50: none; it is -log10 of a concentration expressed in mol/L.

pIC50 reported for this compound CCC#CCOc1ccc2ccc(=O)oc2c1 [Compound 7, 7-(Pent-2-yn-1-yloxy)-2H-chromen-2-one] : 4.23

---

Biological target: hCA VII (Homo sapiens, UniProt P43166)
Sequence (P43166 whole entry): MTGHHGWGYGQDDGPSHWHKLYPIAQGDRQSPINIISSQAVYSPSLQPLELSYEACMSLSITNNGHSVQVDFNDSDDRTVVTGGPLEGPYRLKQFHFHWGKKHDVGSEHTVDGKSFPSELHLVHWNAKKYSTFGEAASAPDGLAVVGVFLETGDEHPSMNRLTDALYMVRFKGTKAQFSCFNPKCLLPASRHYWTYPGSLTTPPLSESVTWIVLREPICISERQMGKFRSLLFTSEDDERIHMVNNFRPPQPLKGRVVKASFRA
Listing: Ki of selected molecules

Example cases with answers are listed next.
Given smiles: C#CCCCOc1ccc2ccc(=O)oc2c1
Readout label: Ki
Result value: 69.3 nM
--
Given smiles: C#CCOc1ccc2ccc(=O)oc2c1
Readout label: Ki
Result value: 51.9 nM
--
Given smiles: CC#CCOc1ccc2ccc(=O)oc2c1
Readout label: Ki
Result value: 68.2 nM
--
Given smiles: C#CCCCOc1cc(=O)oc2ccccc12
Readout label: Ki
Result value: 59.8 nM
--
Given smiles: C#CCOc1ccc2oc(=O)ccc2c1
Readout label: Ki
Result value: 61.7 nM

Ki for hCA VII (Homo sapiens, UniProt P43166) with input "C#CCCCCOc1cc(=O)oc2ccccc12" equals 46.9 nM

Record "CCC#CCOc1ccc2ccc(=O)oc2c1" / hCA VII (Homo sapiens, UniProt P43166), Ki recorded as 63.5 nM

Tested system hCA VII (Homo sapiens, UniProt P43166); Ki recorded for "C#CCCCCOc1ccc2ccc(=O)oc2c1" was 77.1 nM

// returns Ki for "CC#CCOc1ccc2oc(=O)ccc2c1" with hCA VII (Homo sapiens, UniProt P43166); value = 63.3 nM

---

Target: hMAO-A (Homo sapiens, UniProt P21397)
Sequence (P21397 whole entry): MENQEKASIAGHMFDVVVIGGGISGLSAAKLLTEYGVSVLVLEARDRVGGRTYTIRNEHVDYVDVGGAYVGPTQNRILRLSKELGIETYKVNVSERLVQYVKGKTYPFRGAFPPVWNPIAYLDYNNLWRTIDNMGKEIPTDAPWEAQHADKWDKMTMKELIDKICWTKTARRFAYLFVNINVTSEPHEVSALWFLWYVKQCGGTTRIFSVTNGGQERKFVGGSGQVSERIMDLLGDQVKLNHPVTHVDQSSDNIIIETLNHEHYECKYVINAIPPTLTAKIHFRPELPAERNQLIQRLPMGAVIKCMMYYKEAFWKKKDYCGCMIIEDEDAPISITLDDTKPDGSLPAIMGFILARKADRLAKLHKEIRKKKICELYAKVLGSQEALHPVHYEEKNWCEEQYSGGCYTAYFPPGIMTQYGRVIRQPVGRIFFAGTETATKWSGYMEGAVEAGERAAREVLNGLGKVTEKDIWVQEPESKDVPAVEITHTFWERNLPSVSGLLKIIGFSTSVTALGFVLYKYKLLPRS
Test: hMAO-A inhibition, recombinant enzyme, kynuramine substrate, fluorescence
Details: Lineweaver-Burk plots
Readout label: pKi
Formally, pKi is defined as -log10 of the concentration c, with c in mol/L.

Given item C#CCCCCOc1ccc2ccc(=O)oc2c1 [Compound 9, 7-(Hex-5-yn-1-yloxy)-2H-chromen-2-one] , the value recorded as its pKi is 6.84

---

Target: hCA IX (Homo sapiens)
Readout label: pKi
Units for pKi: none; it is -log10 of a concentration expressed in mol/L.

Answered examples (6):
Compound: C#CCCCOc1cc(=O)oc2ccccc12 [Compound 1, 4-(Pent-4-yn-1-yloxy)-2H-chromen-2-one]
pKi: 7.76
//
Compound: C#CCCCCOc1cc(=O)oc2ccccc12 [Compound 2, 4-(Hex-5-yn-1-yloxy)-2H-chromen-2-one]
pKi: 8.05
//
Compound: CCC#CCOc1ccc2ccc(=O)oc2c1 [Compound 7, 7-(Pent-2-yn-1-yloxy)-2H-chromen-2-one]
pKi: 7.89
//
Compound: CC#CCOc1ccc2oc(=O)ccc2c1 [Compound 4, 6-(But-2-yn-1-yloxy)-2H-chromen-2-one]
pKi: 7.62
//
Compound: C#CCCCOc1ccc2ccc(=O)oc2c1 [Compound 8, 7-(Pent-4-yn-1-yloxy)-2H-chromen-2-one]
pKi: 7.58
//
Compound: C#CCCCCOc1ccc2ccc(=O)oc2c1 [Compound 9, 7-(Hex-5-yn-1-yloxy)-2H-chromen-2-one]
pKi: 7.50

Reported pKi (hCA IX (Homo sapiens)) for entry CC#CCOc1ccc2ccc(=O)oc2c1 [Compound 6, 7-(But-2-yn-1-yloxy)-2H-chromen-2-one] is 8.03
